Below, each of the compounds is paired with its reported TGI value.
system: UACC-257 melanoma; test: NCI tumour cell line growth inhibition, 48 h
assayReadout: TGI (µM)

> print(dat)
                                    compound  comparativesign  quantitativereadout
 1  COC(=O)C1=C(C(=O)OC)C2(C)CCC(=O)C1O2 (centres undefined)                >                   10
 2  CN1c2ccccc2C(=O)NC12CCN(CC1COc3ccccc3O1)CC2 (centres undefined)                >                  100
 3  Cc1ncc(NC(=O)c2ccc(CN3CCN(C)CC3)c(C(F)(F)F)c2)cc1Nc1nccc(-c2cccnc2)n1                =                 27.9
 4  CNC(=O)c1cn(C[C@H](F)CCc2ccc(NC(=O)Cc3cc(OC4CC(F)(F)C4)cc(C)n3)nn2)nn1                >                  100
 5  O=c1c2ccccc2c2c3c1cccc3c1cccc3c(=O)c4ccccc4c2c31                >                  100
 6  COc1cc2c(cc1O)CC[n+]1cc3c(OC)c(OC)ccc3cc1-2                >                  100
 7  CC1(C)[C@@H]2C[C@H]1c1cnc(-c3ccccn3)cc1[C@H]2C(O)[C@@H]1c2cc(-c3ccccn3)ncc2[C@H]2C[C@@H]1C2(C)C (some centres undefined)                =                   26
 8  CC(C)(C)c1ccc2c(c1)OCc1n[nH]c(n1)COc1cc(C(C)(C)C)ccc1OCCOCCO2                =                    8
 9  NS(=O)(=O)c1ccc(NC(=O)c2cccc3c(=O)c4ccccc4[nH]c23)cc1                >                  100
10  CCOC(=O)c1ccc(C(=O)/C(C(=O)OC(C)(C)C)=C2\CCCN2C)n1C                >                  100
11  COC(=O)C(CCSC)NC(=O)CSc1nnc(COc2ccc(Cl)cc2)n1-c1ccccc1 (centres undefined)                =                 31.2
12  NS(=O)(=O)c1nnc(NSc2ccc([N+](=O)[O-])cc2)s1                >                  100
13  COc1cc2c3c(n(CCCN4CCC(N)CC4)c(=O)c2cc1OC)-c1cc2c(cc1C3=O)OCO2                =                 17.9
14  C=C1CC2C(=O)N(c3ccccc3)C(=O)C2CC1n1[nH]c(=O)n(Cc2ccccc2)c1=O (centres undefined)                >                  100
15        COc1cc(/C=C\c2ccc(O)cc2)cc(OC)c1OC                >                  100
16  COc1cc(/C=C/C(=N\NC(=O)c2ccccc2)c2sc(Nc3ccc(Cl)c(Cl)c3)nc2C)ccc1O                >                  100
17  CCCCCC(=O)Oc1ccc(/C(=C(\C)c2ccc(OC)cc2)c2ccc(OCCN3CCCCC3)cc2)cc1                =                 5.83
18   COc1ccc(NC2=C(Br)C(=O)C(C)=C(C)C2=O)cc1                =                 3.37
19    CC(C)(C)OC(=O)c1ccc(NCc2cc(O)ccc2O)cc1                =                 14.9

###

tested on: HT29 colon; assay: NCI tumour cell line growth inhibition, 48 h
Below, each of the compounds is paired with its reported TGI value.
assayReadout: TGI

compound	assayReadout	result
CCN(CC)C(=S)SS(=O)(=O)c1ccc(C)cc1	TGI	30.2 µM
CC1=Nc2c(ccc3c2C(=O)c2ccccc2C3=O)NC(c2ccncc2)C1 (stereo unspecified)	TGI	> 100 µM
N/C(CSCCSC/C(N)=N/O)=N\O	TGI	> 100 µM
CC1(C)[C@@H]2C[C@H]1c1cnc(-c3ccccn3)cc1[C@H]2C(O)[C@@H]1c2cc(-c3ccccn3)ncc2[C@H]2C[C@@H]1C2(C)C (stereo partly specified)	TGI	3.57 µM
Cc1sc(C)c(-c2ccc(CO)o2)c1-c1ccc(CO)o1	TGI	> 100 µM
CCCNCc1cc(C)cc2c1nc(N1CCNCC1)n2Cc1cc(C)c(F)c(C)c1	TGI	5.29 µM
Cc1cc(C)nc(NS(=O)(=O)c2ccc(Nc3c4ccccc4nc4c(C(=O)N5CCN(CCOS(C)(=O)=O)CC5)ccc(Cl)c34)cc2)n1	TGI	> 100 µM
COc1ccc(-c2cc(-c3cc(Cl)ccc3Cl)nc3nc(=S)[nH]c(N)c23)cc1	TGI	> 100 µM
C=CC(=O)N1CCN(c2ncnc3c(F)c(-c4c(O)cccc4F)c(Cl)cc23)CC1	TGI	77.7 µM
O=C1c2ccccc2-c2cccc3ccc(Cc4ccccc4)c1c23	TGI	> 100 µM
COc1ccc2c(c1)[C@@]13CCN4CC5=CCO[C@H]6CC(=O)N2[C@H]1[C@H]6[C@H]5C[C@H]43	TGI	> 100 µM
C[C@H]1CCC/C=C/[C@@H]2C[C@H](N)C[C@H]2[C@H](O)/C=C/C(=O)O1	TGI	> 100 µM
C=C(COC(C)=O)CC(/C=C(\C)CCC=C(C)C)OC(C)=O (stereo unspecified)	TGI	> 100 µM
Oc1c(Br)cc(CN(Cc2cc(Br)c(O)c(Br)c2)C2CCCCC2)cc1Br	TGI	> 100 µM
CN(C)C(=S)/N=c1\ss/c(=N\S(=O)(=O)c2ccccc2)n1-c1ccccc1	TGI	> 100 µM
COc1cc2nc(-c3c(F)cccc3F)n(Cc3c(F)cccc3F)c2cc1Cc1c(F)cccc1F	TGI	> 100 µM
CN1CCN(C)C1c1cccc(C2N(C)CCN2C)c1	TGI	> 100 µM
Nc1nc(Nc2ccc(OCc3cccc(F)c3)cc2)c2c(n1)[nH]c1ccc(O)cc12	TGI	4.49 µM
CC(O)CN1C(=O)NC(Cc2ccccc2)C1=O (stereo unspecified)	TGI	> 100 µM
COC(=O)C(Cc1ccccc1)N/C=C\C(=O)c1ccc(Cl)cc1 (stereo unspecified)	TGI	> 100 µM
C=CCOc1c(Br)cc(Br)cc1Br	TGI	> 100 µM

###

test system: UACC-257 melanoma; assay: NCI tumour cell line growth inhibition, 48 h; in the data active = GI50 below about 0.43 µM; inactive = the rest
Possible outcomes: Yes (active), No (inactive)

> print(dat)
                                    compound       testedtarget  classlabel
 1  Nc1nc(Nc2ccc(OCc3cccc(F)c3)cc2)c2c(n1)[nH]c1ccc(O)cc12  UACC-257 melanoma          No
 2  C=C1C(=O)O[C@H]2[C@H]1CC/C(COC(=O)c1cc3cc(OC)ccc3[nH]1)=C\CC[C@@]1(C)O[C@@H]21  UACC-257 melanoma          No
 3   O=C(Nc1cc(-c2ccccc2)[nH]n1)c1ccc(Cl)cc1  UACC-257 melanoma          No
 4  CC(=O)[CH-]C(C)=O.CC(=O)[CH-]C(C)=O.N=CC=N.[Sn+2]  UACC-257 melanoma          No
 5  CNC(=O)c1cn(C[C@H](F)CCc2ccc(NC(=O)Cc3cc(OC4CC(F)(F)C4)cc(C)n3)nn2)nn1  UACC-257 melanoma          No
 6  FC(F)(F)c1ccc2c(Nc3cccc(C4CC(c5ccccc5)=NN4c4ccc(Cl)cc4)c3)ccnc2c1 (stereo unspecified)  UACC-257 melanoma          No
 7  N#Cc1c(-c2ccccc2)nc2c(c(-c3ccccc3)nn2-c2ccccc2)c1-c1ccc(O)cc1  UACC-257 melanoma          No
 8  COc1cc2c3c(n(CCCN4CCC(N)CC4)c(=O)c2cc1OC)-c1cc2c(cc1C3=O)OCO2  UACC-257 melanoma          No
 9  CC1=Nc2c(ccc3c2C(=O)c2ccccc2C3=O)NC(c2ccncc2)C1 (stereo unspecified)  UACC-257 melanoma          No
10  O=C(N/N=C/c1ccc(Cl)cc1Cl)c1ccccc1Nc1cccc(C(F)(F)F)c1  UACC-257 melanoma          No
11  CC1=C(C)C(=O)O[C@@H]([C@](C)(O)[C@]2(O)CC[C@@]3(O)[C@@H]4C[C@H]5O[C@]56CC=CC(=O)[C@]6(C)[C@H]4CC[C@]23C)C1  UACC-257 melanoma         Yes
12  CC(=O)n1c(-c2ccc(Cl)cc2)nc2c(c1=O)C(c1ccc(Cl)cc1)c1sc3c(Cl)cccc3c1O2 (stereo unspecified)  UACC-257 melanoma          No
13  CN(C)CCNC(=O)Nc1c(C#N)[n+]([O-])c2cc(Cl)c(Cl)cc2[n+]1[O-]  UACC-257 melanoma          No
14       CNc1nc(NC2CCCC2)nc(Sc2ccc(OC)cc2)n1  UACC-257 melanoma          No
15   COc1ccc(NC2=C(Br)C(=O)C(C)=C(C)C2=O)cc1  UACC-257 melanoma          No
16  C=CC(=O)N1CCN(c2ncnc3c(F)c(-c4c(O)cccc4F)c(Cl)cc23)CC1  UACC-257 melanoma          No

Data credit: PubChem BioAssay (NCI)
